# system tested: T1, human galectin-10-His (recombinant human galectin-10 with TEV-cleavable N-terminal His-tag) (human)
# T1 construct: SEC-MALLS: dimer in solution; also called Gal10-His; humanGal10-His
# T1 chain: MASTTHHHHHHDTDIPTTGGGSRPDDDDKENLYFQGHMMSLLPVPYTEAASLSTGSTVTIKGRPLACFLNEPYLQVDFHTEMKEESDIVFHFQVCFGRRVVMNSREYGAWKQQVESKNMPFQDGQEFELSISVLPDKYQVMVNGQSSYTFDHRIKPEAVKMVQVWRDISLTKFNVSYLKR
# test description: ELISA, scFv-hFc on coated galectin-10-His (0.2 ug/mL)
measured attribute: pEC50
Value format note: pEC50 is -log10 of concentration (mol/L); just state the number.

binder="2E11 scFv-human Fc (Fc fusion, about 100 kDa on SDS-PAGE; also called 2E11 ScFv-hFc; not shown: CH2-CH3 constant domains of human IgG1 (vector pUPEX50)) scFv: EVQLVESGGGLVQPGGSLRLSCAASGFTFSSYAMSWVRQAPGKGLEWVSPINSGSDSASYVDSVKGRFTISRDNAKNTLYLQMNSLKPEDTAVYYCAKARTSVVAGGMDYWGKGTLVTVSSGGGGSGGGGSGGGGSQSALTQPSAVSVSLGQTARITCQGGKFGSYYVSWYQQKPGQAPVMVIYKDNERPSGIPERFSGSSSGSTSTLTISGAQAEDEGTYYCQSGSSSDNIVFGGGTELTVF" value=9.85
binder="2B11 scFv-human Fc (Fc fusion, about 100 kDa on SDS-PAGE; also called 2B11 ScFv-hFc; not shown: CH2-CH3 constant domains of human IgG1 (vector pUPEX50)) scFv: QVQLQESGPGLVKPSQTLSLTCTVSGGSITTNYYYWSWIRQPPGKGLEWMGAIAYSGSTYYSPSLKSRTSISRDTSKNQFTLQLSSVTPEDTAVYYCARAPYGISREYDYWGQGTQVTVSSGGGGSGGGGSGGGGSHSAVTQPSAVSVSLGQTARITCQGGKFGRYYASWYQQKPGQAPVLVIYKDSERPSGIPERFSGSSSGDTATLSISGAQAEDEADYFCQSGRSSDNAVFGGGTHLTVL" value=10.10
binder="4H10 scFv-human Fc (Fc fusion, about 100 kDa on SDS-PAGE; also called 4H10 ScFv-hFc; not shown: CH2-CH3 constant domains of human IgG1 (vector pUPEX50)) scFv: QVQLVESGGGLVQPGGSLRLSCAASGFTFDDYAMSWVRQAPGKGLEWVSAISWNGGSTYYAESMKGRFTISRDNAKNTLYLQMNSLKSEDAAVYYCAKDLSASGSYYHTFGSWGQGTQVTVSSGGGGSGGGGSGGGGSQAGLTQPPSVAGTLGKTVTISCAGTSSDVGYGDYVSWYQHIPGTAPKLLIYKVKTRASGIPDRFSGSKSGNTASLTISGLQSGDESDYYCASYKNGGTAVFGGGTHLTVL" value=9.70
binder="6F05 scFv-human Fc (Fc fusion, about 100 kDa on SDS-PAGE; also called 6F5; 6F05 ScFv-hFc; not shown: CH2-CH3 constant domains of human IgG1 (vector pUPEX50)) scFv: QLQLVESGGGLVQPGGSLRLSCAASGFTFSSYAMSWVRQAPGKGLEWVSAINSGGGSTSYADSVKGRFTISRDNAKNTLYLQMNSLKPEDTAVYYCATPGDRLWYYRYDYWGQGTQVTVSSGGGGSGGGGSGGGGSQAGLTQPPSVSGTLGKAVTISCAGTSSDIGYGNYVSWYQQLPGTAPKLLIYKVSRRASGVPDRFSGSKSGNTASLSISGLQSEDEADYYCASYRYRNNVVFGGGTHLTVL" value=10.70
binder="4G05 scFv-human Fc (Fc fusion, about 100 kDa on SDS-PAGE; also called 4G05 ScFv-hFc; not shown: CH2-CH3 constant domains of human IgG1 (vector pUPEX50)) scFv: QLQVVESGGGLVQTGGSLTLSCTTSGFTFSRYWMIWVRQAPGKGLEWVSSIYNDGGNTYYADSVKGRFTISRDNSENTLYLQMNSLKSEDTAVYYCAKLKAAYYGMDYWGKGTLVTVSSGGGGSGGGGSGGGGSSSALTQPSAVSVSLGQTARITCQGANLGRYYGIWYQQKPGQAPVQVIYGDSNRPSGIPERFSGSSSGGTATLTISGAQAEDEADYYCQSYESSTSPVFGGGTHLTVL" value=10.05
binder="5E12 scFv-human Fc (Fc fusion, about 100 kDa on SDS-PAGE; also called 5E12 ScFv-hFc; not shown: CH2-CH3 constant domains of human IgG1 (vector pUPEX50)) scFv: QLQLVESGGGLVQPGGSLRLSCVASGFTFRNYPMTWVRQAPGKGPEWVSAINGGGDIPYYADSVKGRFTISRDNAKNTVYLQMDSLKPEDTAMYYCAKQKWGYDPRRTDFEFRGQGTQVTVSSGGGGSGGGGSGGGGSETVPTQSPSSVTASVGEKVTITCKSSQSVRIESNHKTYLNWYQQRPGRGPRLLIYDASSRESGIPDRFSGSGSTSDFTLTISSVQPEDAAVYYCQQAYAAPTFGQGTKLEIK" value=9.60
binder="2C07 scFv-human Fc (Fc fusion, about 100 kDa on SDS-PAGE; also called 2C07 ScFv-hFc; not shown: CH2-CH3 constant domains of human IgG1 (vector pUPEX50)) scFv: ELQLVESGGGLVQPGGSLRLSCAASGFTFSSYAMSWVRQAPGKGLEWVSNINSGGGSTGYADSVKGRFTISRDNAKNTLYLQMNSLKPEDMAVYYCAKYLRTYYPNAAFGMDYWGKGTLVTVSSGGGGSGGGGSGGGGSQAVLTQPSAVSVSLGQTARITCQGGNFGRYYASWYQQKPGQAPVLVIYRDSERPSGIPERFSGSSSGDTATLTISGAQAEDEADYYCQSGRSSDNAVFGGGTHLTGL" value=10.30
binder="6A11 scFv-human Fc (Fc fusion, about 100 kDa on SDS-PAGE; also called 6A11 ScFv-hFc; not shown: CH2-CH3 constant domains of human IgG1 (vector pUPEX50)) scFv: ELQLVESGGGLVQPGGSLRLSCSASGFTFGAYAMNWVRQAPGKGLEWVSGVNSGGGLTSYGESVKGRFTISRDNAKNTLYLQMNRLNPDDTAVYYCAKSKRGAVVAGTGDDYWGQGTQVTVSSGGGGSGGGGSGGGGSSSALTQPSAVSVSLGQTARITCQGGNFGRYYVSWYQQKPGQAPVLVIYKDSERPSGIPERFSGSSSGDTATLTISGAQAEDEADYYCQSGSSSDNAVFGGGTHLTVL" value=11.00
binder="4B10 scFv-human Fc (Fc fusion, about 100 kDa on SDS-PAGE; also called 4B10 ScFv-hFc; not shown: CH2-CH3 constant domains of human IgG1 (vector pUPEX50)) scFv: QLQLVESGGGLVQPGGSLRLSCAASGFTFSNYWMYWVRQAPGKGLEWVSAIDVGGGTTDYAGSVKGRFTISRDNTKSTVYLQMNTLKPEDTALYYCLRGGSYYGGMDYWGKGTLVTVSSGGGGSGGGGSGGGGSQSALTQPSAVSVSLGQTARITCQGAKLGRYYGIWYQQKPGQAPVQVIYGDSNRPSGIPERFSGSSSGGTATLTISGAQAEDEADYYCQSYESSTSPVFGGGTHLTVL" value=10.10
binder="3A03 scFv-human Fc (Fc fusion, about 100 kDa on SDS-PAGE; also called 3A03 ScFv-hFc; not shown: CH2-CH3 constant domains of human IgG1 (vector pUPEX50)) scFv: QVQLVESGGGLVQPGGSLRLSCATSGFTFSVYAMSWVRQAPGKGLEWVADINTSGDSTTYADSVKGRFTISRDNAKNTLYLQMNSLKPEDTAVYYCANRYTQERGQGTQVTVSSGGGGSGGGGSGGGGSDVVLTQTPGSLSVVPGEAASISCKPGRTLVHTDGRTYLYWLQQKPGQRPQLLIYQVSNRGSGVPDRFTGSGSGTDFTLKISGVKAEDAGVYYCAQATYYPLTFGSGTRLEIK" value=10.22

With those in mind, consider the next binder.
QUERY: For 6F11 scFv-human Fc (Fc fusion, about 100 kDa on SDS-PAGE; also called 6F11 ScFv-hFc; not shown: CH2-CH3 constant domains of human IgG1 (vector pUPEX50)) scFv: QVQRQESGPGLVKPSQTLSVTCTVSGGSITTGPYSWSWIRQPPGKGLEWIGYIGYSGSTYYSPSLKSRTSISRDTSNNQFSLQLSSVTPEDTAVYYCARSRSSPTTFGMDYWGKGTLVTVSSGGGGSGGGGSGGGGSSSALTQPSAVSVSLGQTARITCQGGDFGRYYVAWYTQKPGQAPVLVIYQDSERPSGIPERFSGSSSGDTATLTISGAQAEDEAEYYCQSGISSDNIVFGGGTHLTVL , what is its reported pEC50?
RESULT: 9.32
